# method-summary: physchem
# run-parameters: buffer
# Description: Aqueous kinetic solubility of the compound
Where solubility kinetic equals or exceeds 2 µM, the correct label is 1; where it does not, the label is -1.

Look over these answered cases.
| molecule-smiles | category |
| --- | --- |
| CN1CCC(Nc2cc(Cl)nn3c(-c4ccc5[nH]c(Nc6ccccc6)nc5c4)cnc23)CC1 | 1 |
| Clc1cc(NC2CCOCC2)c2ncc(-c3ccc4[nH]c(Nc5ccccc5)nc4c3)n2n1 | 1 |
| Clc1cc(NCC2CC2)c2ncc(-c3ccc4[nH]c(Nc5ccccc5)nc4c3)n2n1 | 1 |
| Clc1cc(NCC2CC2)c2ncc(-c3ccc4[nH]ncc4c3)n2n1 | -1 |
| CN1CCC(Nc2cc(Cl)nn3c(-c4ccc5[nH]ncc5c4)cnc23)CC1 | 1 |

Continue with the compound presented below.
Ask: # check: solubility kinetic of Clc1cc(NC2CCOCC2)c2ncc(-c3ccc4[nH]ncc4c3)n2n1 is greater than or equal to 2 µM
Result: 1
